# protocolText: Clinical pharmacokinetics after 25 mg or 75 mg BID administration
# Type: in vivo, human
# conditionDetails: human, plasma, oral; both 25 mg and 75 mg BID; read-out: elimination half-life
assayReadout: half-life

Data request: Could you tell me which half-life is on file for C[C@H](Nc1ncnc2[nH]cnc12)c1cc2cccc(Cl)c2c(=O)n1-c1ccccc1 ?
Data returned: 4 to 5 h

====

# Tested on: Toledo
# protocolText: DLBCL cellular growth inhibition assay
# Assay type: cell-based
# conditionDetails: Homo sapiens
assayReadout: IC50

Data request: Endpoint output: IC50 of C[C@H](Nc1ncnc2[nH]cnc12)c1cc2cccc(Cl)c2c(=O)n1-c1ccccc1 . Value?
Data returned: > 50 µM

Reference for the values: patent US20160113932A1
